Assay: Study 2
Type: in vivo, human
Settings: human, plasma, oral, 10 mg
Endpoint label: concentration at 96 h

Find the recorded concentration at 96 h belonging to C#C[C@]1(CO)O[C@@H](n2cnc3c(N)nc(F)nc32)C[C@@H]1O and report it.
< 1 ng/mL

These data points were gathered from paper PMC8504818.
